- Tested on: NCI-H196 complex spheroid growth, percent test/control
- experiment_summary: Anticancer human tumor NCI-H196 cell line growth inhibition [AhR]
- experimental_conditions: second compound 0.1 µM; first compound 0.00316 µM; hits give low values
# maps each entry to its viability, T/C
Provide only the numeric value, understood in %.

Challenge: So what viability, T/C did CC[C@@]1(O)C(=O)OCc2c1cc1n(c2=O)Cc2cc3c(CN(C)C)c(O)ccc3nc2-1 + Cc1cncc(-c2nc(NCCc3c[nH]c4ccccc34)c3ncn(C(C)C)c3n2)c1 get with NCI-H196 complex spheroid growth, percent test/control?
Response given: 83

Challenge: So what viability, T/C did Cn1ncnc1C1c2n[nH]c(=O)c3cc(F)cc(c23)NC1c1ccc(F)cc1 (stereo unspecified) + Cc1ccccc1N=Nc1ccc(NC(=O)c2ccnn2C)c(C)c1 get with NCI-H196 complex spheroid growth, percent test/control?
Response given: 105

Challenge: So what viability, T/C did CC1COCCN1c1cc(-c2ccnn2C)c2ccnc(-c3ccn[nH]3)c2n1 (stereo unspecified) + CC(CO)NC(=O)c1cc(-c2ccc(Cl)cc2)nn(-c2cnn(C)c2)c1=O get with NCI-H196 complex spheroid growth, percent test/control?
Response given: 104

###

- System: NCI-H196 complex spheroid growth, percent test/control
- experiment_summary: Anticancer human tumor NCI-H196 cell line growth inhibition [AhR];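 note: seven days of drug exposure starting three days after plating; 100% = DMSO vehicle control wells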
- experimental_conditions: second compound 10 µM; first compound 1 µM; hits give low values
Note: every record was labeled by where its viability, T/C sits among low bracket = under 60%, middle bracket = from 60% up to 80%, high bracket = 80% and over

Example entries begin here.
Challenge: Assign a bin to Nc1ccn(C2OC(CO)C(O)C2(F)F)c(=O)n1 (configuration not stated) + Cc1ccccc1N=Nc1ccc(NC(=O)c2ccnn2C)c(C)c1
Response given: middle bracket

Challenge: Assign a bin to COc1cccc2c1C(=O)c1c(O)c3c(c(O)c1C2=O)CC(O)(C(=O)CO)CC3OC1CC(N)C(O)C(C)O1 (configuration not stated) + Cc1cncc(-c2nc(NCCc3c[nH]c4ccccc34)c3ncn(C(C)C)c3n2)c1
Response given: low bracket

Others:
Challenge: Assign a bin to Nc1ccccc1NC(=O)c1ccc(CNC(=O)OCc2cccnc2)cc1 + CC(CO)NC(=O)c1cc(-c2ccc(Cl)cc2)nn(-c2cnn(C)c2)c1=O
Response given: low bracket

Challenge: Assign a bin to COc1ccc([C@@H](O)c2cc(-c3ncnc4cc(N5CCOCC5)ccc34)c(F)cc2Cl)nn1 + CC(CO)NC(=O)c1cc(-c2ccc(Cl)cc2)nn(-c2cnn(C)c2)c1=O
Response given: high bracket

Challenge: Assign a bin to Nc1ccn(C2OC(CO)C(O)C2(F)F)c(=O)n1 (configuration not stated) + CC(CO)NC(=O)c1cc(-c2ccc(Cl)cc2)nn(-c2cnn(C)c2)c1=O
Response given: middle bracket

Challenge: Assign a bin to COc1cc(C2c3cc4c(cc3C(OC3OC5COC(C)OC5C(O)C3O)C3COC(=O)C23)OCO4)cc(OC)c1O (configuration not stated) + CC(CO)NC(=O)c1cc(-c2ccc(Cl)cc2)nn(-c2cnn(C)c2)c1=O
Response given: high bracket

Challenge: Assign a bin to CC1(C)CCC(CN2CCN(c3ccc(C(=O)NS(=O)(=O)c4ccc(NCC5CCOCC5)c([N+](=O)[O-])c4)c(Oc4cnc5[nH]ccc5c4)c3)CC2)=C(c2ccc(Cl)cc2)C1 + Cc1cncc(-c2nc(NCCc3c[nH]c4ccccc34)c3ncn(C(C)C)c3n2)c1
Response given: high bracket

Challenge: Assign a bin to CC1COCCN1c1cc(-c2ccnn2C)c2ccnc(-c3ccn[nH]3)c2n1 (configuration not stated) + Cc1ccccc1N=Nc1ccc(NC(=O)c2ccnn2C)c(C)c1
Response given: low bracket

Challenge: Assign a bin to O=C(C=Cc1cccc(S(=O)(=O)Nc2ccccc2)c1)NO + Cc1ccccc1N=Nc1ccc(NC(=O)c2ccnn2C)c(C)c1
Response given: middle bracket

Challenge: Assign a bin to CC1COCCN1c1cc(C2(S(C)(=N)=O)CC2)nc(-c2ccnc3[nH]ccc23)n1 (configuration not stated) + CC(CO)NC(=O)c1cc(-c2ccc(Cl)cc2)nn(-c2cnn(C)c2)c1=O
Response given: high bracket

###

- System: NCI-H196 complex spheroid growth, percent test/control
- experiment_summary: Anticancer human tumor NCI-H196 cell line growth inhibition [AhR]; active means viability on the fitted dose curve at most 10% of control; inactive means the rest;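 note: seven days of drug exposure starting three days after plating; 100% = DMSO vehicle control wells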
- experimental_conditions: second compound 10 µM; first compound 0.03 µM
Select the matching outcome among active, inactive

Challenge: // return assay outcome for CCc1c2c(nc3ccc(O)cc13)-c1cc3c(c(=O)n1C2)COC(=O)[C@]3(O)CC + Cc1cncc(-c2nc(NCCc3c[nH]c4ccccc34)c3ncn(C(C)C)c3n2)c1
Response given: inactive

Challenge: // return assay outcome for CCc1c2c(nc3ccc(O)cc13)-c1cc3c(c(=O)n1C2)COC(=O)[C@]3(O)CC + CC(CO)NC(=O)c1cc(-c2ccc(Cl)cc2)nn(-c2cnn(C)c2)c1=O
Response given: inactive

Challenge: // return assay outcome for Nc1ncn(C2CC(O)C(CO)S2)c(=O)n1 (centres undefined) + CC(CO)NC(=O)c1cc(-c2ccc(Cl)cc2)nn(-c2cnn(C)c2)c1=O
Response given: inactive

Challenge: // return assay outcome for CC(C)CC(NC(=O)C(Cc1ccccc1)NC(=O)c1cnccn1)B(O)O (centres undefined) + Cc1ccccc1N=Nc1ccc(NC(=O)c2ccnn2C)c(C)c1
Response given: inactive

Challenge: // return assay outcome for CCN(c1cc(-c2ccc(CN3CCOCC3)cc2)cc(C(=O)NCc2c(C)cc(C)[nH]c2=O)c1C)C1CCOCC1 + CC(CO)NC(=O)c1cc(-c2ccc(Cl)cc2)nn(-c2cnn(C)c2)c1=O
Response given: inactive

Challenge: // return assay outcome for CC(C)CC(NC(=O)C(Cc1ccccc1)NC(=O)c1cnccn1)B(O)O (centres undefined) + Cc1cncc(-c2nc(NCCc3c[nH]c4ccccc34)c3ncn(C(C)C)c3n2)c1
Response given: active

Challenge: // return assay outcome for CC(C)CC(NC(=O)C(Cc1ccccc1)NC(=O)c1cnccn1)B(O)O (centres undefined) + CC(CO)NC(=O)c1cc(-c2ccc(Cl)cc2)nn(-c2cnn(C)c2)c1=O
Response given: active

Challenge: // return assay outcome for O=C(C=Cn1cnc(-c2cc(C(F)(F)F)cc(C(F)(F)F)c2)n1)NNc1cnccn1 + Cc1ccccc1N=Nc1ccc(NC(=O)c2ccnn2C)c(C)c1
Response given: inactive

Challenge: // return assay outcome for CCN(c1cc(-c2ccc(CN3CCOCC3)cc2)cc(C(=O)NCc2c(C)cc(C)[nH]c2=O)c1C)C1CCOCC1 + Cc1ccccc1N=Nc1ccc(NC(=O)c2ccnn2C)c(C)c1
Response given: inactive

###

- Test system: NCI-H196 complex spheroid growth, percent test/control
- experiment_summary: Anticancer human tumor NCI-H196 cell line growth inhibition [AhR];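 note: seven days of drug exposure starting three days after plating; 100% = DMSO vehicle control wells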
- experimental_conditions: second compound 0.316 µM; first compound 0.1 µM; hits give low values
# maps each entry to its viability, T/C
Provide only the numeric value, understood in %.

Challenge: Looking for the measured viability, T/C of Nc1ncn(C2CC(O)C(CO)O2)c(=O)n1 (configuration not stated) + Cc1ccccc1N=Nc1ccc(NC(=O)c2ccnn2C)c(C)c1 , can you help?
Response given: 103

Others:
Challenge: Looking for the measured viability, T/C of CC1COCCN1c1cc(-c2ccnn2C)c2ccnc(-c3ccn[nH]3)c2n1 (configuration not stated) + CC(CO)NC(=O)c1cc(-c2ccc(Cl)cc2)nn(-c2cnn(C)c2)c1=O , can you help?
Response given: 78.6

Challenge: Looking for the measured viability, T/C of Nc1ccn(C2OC(CO)C(O)C2(F)F)c(=O)n1 (configuration not stated) + CC(CO)NC(=O)c1cc(-c2ccc(Cl)cc2)nn(-c2cnn(C)c2)c1=O , can you help?
Response given: 98

Challenge: Looking for the measured viability, T/C of O=C(C=Cc1cccc(S(=O)(=O)Nc2ccccc2)c1)NO + CC(CO)NC(=O)c1cc(-c2ccc(Cl)cc2)nn(-c2cnn(C)c2)c1=O , can you help?
Response given: 98.1

Challenge: Looking for the measured viability, T/C of CC1COCCN1c1cc(C2(S(C)(=N)=O)CC2)nc(-c2ccnc3[nH]ccc23)n1 (configuration not stated) + Cc1ccccc1N=Nc1ccc(NC(=O)c2ccnn2C)c(C)c1 , can you help?
Response given: 102

Challenge: Looking for the measured viability, T/C of Cn1ncnc1C1c2n[nH]c(=O)c3cc(F)cc(c23)NC1c1ccc(F)cc1 (configuration not stated) + Cc1cncc(-c2nc(NCCc3c[nH]c4ccccc34)c3ncn(C(C)C)c3n2)c1 , can you help?
Response given: 97.8

###

- Tested on: NCI-H196 complex spheroid growth, percent test/control
- experiment_summary: Anticancer human tumor NCI-H196 cell line growth inhibition [AhR];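 note: seven days of drug exposure starting three days after plating; 100% = DMSO vehicle control wells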
- experimental_conditions: second compound 0.1 µM; first compound 0.1 µM; hits give low values
recorded_endpoint: viability, T/C (%)
Provide only the numeric value, understood in %.

Examples with answers:
Challenge: Looking for the measured viability, T/C of COc1cc(Nc2ncc3c(n2)-c2ccc(Cl)cc2C(c2c(F)cccc2OC)=NC3)ccc1C(=O)O + Cc1cncc(-c2nc(NCCc3c[nH]c4ccccc34)c3ncn(C(C)C)c3n2)c1 , can you help?
Response given: 99.5

Challenge: Looking for the measured viability, T/C of O=C(C=Cc1cccc(S(=O)(=O)Nc2ccccc2)c1)NO + Cc1ccccc1N=Nc1ccc(NC(=O)c2ccnn2C)c(C)c1 , can you help?
Response given: 100

Challenge: Looking for the measured viability, T/C of COc1ccc([C@@H](O)c2cc(-c3ncnc4cc(N5CCOCC5)ccc34)c(F)cc2Cl)nn1 + Cc1cncc(-c2nc(NCCc3c[nH]c4ccccc34)c3ncn(C(C)C)c3n2)c1 , can you help?
Response given: 101

Challenge: Looking for the measured viability, T/C of Nc1ccn(C2OC(CO)C(O)C2(F)F)c(=O)n1 (configuration not stated) + Cc1cncc(-c2nc(NCCc3c[nH]c4ccccc34)c3ncn(C(C)C)c3n2)c1 , can you help?
Response given: 60.1

Challenge: Looking for the measured viability, T/C of O=C(C=Cc1cccc(S(=O)(=O)Nc2ccccc2)c1)NO + Cc1cncc(-c2nc(NCCc3c[nH]c4ccccc34)c3ncn(C(C)C)c3n2)c1 , can you help?
Response given: 102

Challenge: Looking for the measured viability, T/C of Cn1ncnc1C1c2n[nH]c(=O)c3cc(F)cc(c23)NC1c1ccc(F)cc1 (configuration not stated) + Cc1ccccc1N=Nc1ccc(NC(=O)c2ccnn2C)c(C)c1 , can you help?
Response given: 103

Challenge: Looking for the measured viability, T/C of COc1ccc([C@@H](O)c2cc(-c3ncnc4cc(N5CCOCC5)ccc34)c(F)cc2Cl)nn1 + Cc1ccccc1N=Nc1ccc(NC(=O)c2ccnn2C)c(C)c1 , can you help?
Response given: 92.5

Challenge: Looking for the measured viability, T/C of CC1COCCN1c1cc(-c2ccnn2C)c2ccnc(-c3ccn[nH]3)c2n1 (configuration not stated) + Cc1cncc(-c2nc(NCCc3c[nH]c4ccccc34)c3ncn(C(C)C)c3n2)c1 , can you help?
Response given: 70

Challenge: Looking for the measured viability, T/C of CC1COCCN1c1cc(-c2ccnn2C)c2ccnc(-c3ccn[nH]3)c2n1 (configuration not stated) + CC(CO)NC(=O)c1cc(-c2ccc(Cl)cc2)nn(-c2cnn(C)c2)c1=O , can you help?
Response given: 79.3

Challenge: Looking for the measured viability, T/C of Nc1ccccc1NC(=O)c1ccc(CNC(=O)OCc2cccnc2)cc1 + Cc1cncc(-c2nc(NCCc3c[nH]c4ccccc34)c3ncn(C(C)C)c3n2)c1 , can you help?
Response given: 74.2

Others:
Challenge: Looking for the measured viability, T/C of O=C(c1cc(Cc2n[nH]c(=O)c3ccccc23)ccc1F)N1CCN(C(=O)C2CC2)CC1 + CC(CO)NC(=O)c1cc(-c2ccc(Cl)cc2)nn(-c2cnn(C)c2)c1=O , can you help?
Response given: 114

Challenge: Looking for the measured viability, T/C of CC1(C)CCC(CN2CCN(c3ccc(C(=O)NS(=O)(=O)c4ccc(NCC5CCOCC5)c([N+](=O)[O-])c4)c(Oc4cnc5[nH]ccc5c4)c3)CC2)=C(c2ccc(Cl)cc2)C1 + Cc1ccccc1N=Nc1ccc(NC(=O)c2ccnn2C)c(C)c1 , can you help?
Response given: 109
